# system: hD2 recombinant receptor (human dopamine receptor type 2, long variant, CHO-Gα16-hD2L cells) (Homo sapiens (Human))
# experiment_summary: cell-based
# test_context: D2 fpKi, functional pKi; antagonism of dopamine EC80 calcium response (FLIPR)
Counter-ions that a name gives are not always drawn.
Values of Ki strictly less than 1000 nM map to T, and values of at least 1000 nM map to F.

Report whether reported Ki is lower than 1000 nM (strictly) for Cn1c(CCCCN2CC[C@]3(C[C@@H]3c3ccc(C(F)(F)F)cc3F)C2)nnc1C1CCOCC1 (single isomer, unassigned) [Example 295, hydrochloride]
T

Report whether reported Ki is lower than 1000 nM (strictly) for Cn1c(SCCCN2CC[C@]3(CC3c3ccc(C(F)(F)F)cc3F)C2)nnc1C1CCOCC1 (single isomer, unassigned) [Example 76]
T

Report whether reported Ki is lower than 1000 nM (strictly) for Cc1ncoc1-c1nnc(SCCCN2CCC3(CC2)C[C@@H]3c2ccccc2)n1C (single isomer, unassigned) [Example 309, hydrochloride]
F

Report whether reported Ki is lower than 1000 nM (strictly) for Cn1c(SCCCN2CC[C@]3(CC3c3ccc(C(F)(F)F)cc3)C2)nnc1N1CCOCC1 (single isomer, unassigned) [Example 115]
T

Report whether reported Ki is lower than 1000 nM (strictly) for Cn1c(SCCCN2CC[C@@]3(C[C@@H]3c3ccc(C(F)(F)F)cc3F)C2)nnc1C1CCOCC1 (single isomer, unassigned) [Example 74, hydrochloride]
F

Report whether reported Ki is lower than 1000 nM (strictly) for Cn1c(SCCCN2CC[C@]3(C[C@H]3c3ccc(C(F)(F)F)cc3F)C2)nnc1C1CCOCC1 (single isomer, unassigned) [Example 75, hydrochloride]
F

Report whether reported Ki is lower than 1000 nM (strictly) for Cn1c(CCCCN2CC[C@]3(C[C@H]3c3ccc(C(F)(F)F)cc3)C2)nnc1C1CCOCC1 (single isomer, unassigned) [Example 299, hydrochloride]
F

Report whether reported Ki is lower than 1000 nM (strictly) for Cc1ncoc1-c1nnc(SCCCN2CCC3(CCC3c3ccccc3)C2)n1C (single isomer, unassigned) [Example 321, hydrochloride]
F

Report whether reported Ki is lower than 1000 nM (strictly) for Cc1ncoc1-c1nnc(CCCCN2CC[C@]3(CC3c3ccc(C(F)(F)F)cc3)C2)n1C (some centres unmarked) [Example 301, hydrochloride]
F

Report whether reported Ki is lower than 1000 nM (strictly) for Cn1c(SCCCN2CC[C@]3(CC3c3ccc(C(F)(F)F)cc3)C2)nnc1N1CCOCC1 (single isomer, unassigned) [Example 114, hydrochloride]
F

Report whether reported Ki is lower than 1000 nM (strictly) for Cn1c(SCCCN2CC[C@]3(CC3c3ccc(C(F)(F)F)nc3)C2)nnc1C1CCOCC1 (some centres unmarked) [Example 84]
F
